- TEST DETAILS: MM1S cell viability effects, profiling panel, calcein-AM fluorescence, 48 h, basal (AID 1165);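 also: viability of MM1S multiple myeloma cells under basal unstimulated conditions; test concentration not given here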
- APPLIED CONDITIONS: higher = more signal
METRIC: z-score
Keep the answer to the number alone.

These solved cases illustrate the format of a correct answer.
CPD SMILES	z-score
COCCOC(=O)N1C(=O)[C@@]2(c3cc(C#CCC(C(=O)OC)C(=O)OC)ccc31)[C@H](c1ccc(O)cc1)N1[C@H](c3ccccc3)[C@H](c3ccccc3)OC(=O)[C@H]1[C@@H]2C(=O)NC[C@H](O)c1ccccc1	-1.92
O=C1C[C@@](C(=O)NCc2ccccc2)(c2ccc([N+](=O)[O-])cc2)[C@@H](c2ccc(CO)cc2I)N1CC12CC3CC(CC(C3)C1)C2	-2.99
Cc1cccc([C@H]2C[C@H]3C(I)=C[C@@H]2C(=O)[C@]32CO2)c1	-3.19

[ask] Please indicate z-score recorded for `[N-]=[N+]=Nc1ccccc1[C@@H]1OC(c2ccc(OCCCO)cc2)=N[C@]1(Cc1ccccc1)C(=O)NCc1ccccc1`
[reply] -3.35

====

Documented z-score across a set of molecules
- TEST DETAILS: PSAC antagonists in infected red cells, primary screen, cell-based, P. falciparum Indochina, OD700, 18 h (AID 1157)
- APPLIED CONDITIONS: P. falciparum Indochina infected erythrocytes, osmotic lysis OD700, 18 h; higher = more signal, called active from +8 up or from −8 down
Activity calls are given as the source filed them.

These solved cases illustrate the format of a correct answer.
> print(dat)
                                 cpd.smiles          test.value
1  C=CC[C@H](OC(=O)Nc1ccc(SC)cc1)c1ccc(OCCO)cc1     1.58 (inactive)
2  Cc1cccc([C@H]2C[C@H]3C(Br)=C[C@@H]2C(=O)[C@]32CO2)c1     0.06 (inactive)
3  CN(C)CCCC[C@@H]1NC(=O)[C@@H]2C[C@H](C(=O)O)[C@H](c3cccc(OCCO)c3)N2C1=O  -0.0176 (inactive)

Next:
[ask] Please indicate z-score recorded for `COC(=O)[C@@]1(Cc2ccc(OC)cc2)[C@H]2c3cc(C(=O)N4CCCC4)n(Cc4ccc(OC(F)(F)F)cc4)c3C[C@H]2CN1C(=O)c1ccccc1`
[reply] 1.06 (inactive)

====

- Tested on: Sonic hedgehog protein (Shh)
- TEST DETAILS: small-molecule binders of Shh protein, primary screen, biochemical, small-molecule microarray, 635/667 nm fluorescence (AID 1151);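 also: Shh protein binding to compounds spotted on small-molecule microarray slides; score combines spot fluorescence intensity with signal-to-noise across triplicate slides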
- APPLIED CONDITIONS: small-molecule microarray binding, 635 nm fluorescence; higher = more signal
Documented composite z-score across a set of molecules
Keep the answer to the number alone.

[ask] Please indicate composite z-score recorded for Cc1ccccc1C(O)C1C=CC2C(=O)N(c3ccccc3)C(=O)C2N1Nc1ccc([N+](=O)[O-])cc1 (configuration not stated)
[reply] 0.176

[ask] Please indicate composite z-score recorded for `O=C1O[C@H](c2ccccc2)[C@H](c2ccccc2)N2[C@H]1[C@@H](C(=O)N1CCCCCCC1)[C@]1(C(=O)Nc3ccc(C#CC4(O)CCCCCC4)cc31)[C@H]2c1ccccc1OCCO`
[reply] 2.09

[ask] Please indicate composite z-score recorded for `C=C(/C(=C/C[C@H](OC(=O)c1ccncc1)c1ccccc1OCCO)c1cnc2ccccc2c1)C(C)C`
[reply] 2.01

[ask] Please indicate composite z-score recorded for `[N-]=[N+]=NCc1ccccc1[C@@H]1OC(c2ccc(OCCCO)cc2)=N[C@]1(Cc1ccccc1N=[N+]=[N-])C(=O)N1CCCCC1`
[reply] 0.0257

[ask] Please indicate composite z-score recorded for `CCCC=C(CCC)[C@@H](NC(=O)CCc1ccccc1)c1ccc(C(F)(F)F)cc1`
[reply] -0.37

[ask] Please indicate composite z-score recorded for O=C1C2C=CC(C(O)c3cc(C(F)(F)F)cc(C(F)(F)F)c3)N(Nc3ccccc3F)C2C(=O)N1c1ccccc1 (configuration not stated)
[reply] -0.685

[ask] Please indicate composite z-score recorded for `[N-]=[N+]=NC[C@H](Cc1ccccc1)NC(=O)c1ccccc1`
[reply] -0.0168

====

Documented z-score across a set of compounds
- TEST DETAILS: S. cerevisiae RM11-1a growth modifiers, primary screen, strain RM11-1a, OD600, basal, 24 h (AID 1177);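 also: cultures grown under basal conditions with no added stressor; test concentration not given here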
- APPLIED CONDITIONS: OD600, 24 h, higher = more signal, called active from +8 up or from −8 down
Activity calls are given as the source filed them.

These solved cases illustrate the format of a correct answer.
COMPOUND	z-score
COc1cc(NN2C(C(O)C3CCCCC3)C=CC3C(=O)N(C)C(=O)C32)cc(OC)c1OC (stereo unspecified)	0.668 (inactive)
COc1cc(NN2C(C(O)c3ccc(I)cc3)C=CC3C(=O)N(c4ccccc4)C(=O)C32)cc(OC)c1OC (stereo unspecified)	0.0247 (inactive)
COC(=O)C(CC#Cc1ccc2c(c1)[C@]1(C(=O)N2)[C@H](C(=O)Nc2nc3ccccc3s2)[C@H]2C(=O)O[C@H](c3ccccc3)[C@H](c3ccccc3)N2[C@@H]1c1ccc(OCCO)cc1)C(=O)OC	-0.367 (inactive)
C=CCNC(=O)[C@H]1[C@@H]2C(=O)O[C@@H](c3ccccc3)[C@@H](c3ccccc3)N2[C@@H](c2ccc(O)cc2)[C@]12C(=O)N(C(=O)OCCOC)c1ccc(C#CCC(C(=O)OC)C(=O)OC)cc12	2.19 (inactive)
C=CCC(OC(C)=O)[C@@H]1[C@@H](N(Cc2ccc(-c3ccccc3)cc2)C(=O)c2ccc(C)cc2)c2cc(OCCCO)ccc2N1C(=O)Cc1ccc2ccccc2c1 (stereo partly specified)	-1.72 (inactive)

Next:
[ask] Please indicate z-score recorded for `Cc1ccc(S[C@]2(C(=O)NC(C)C)CC(=O)N(Cc3ccccc3Cl)[C@@H]2c2ccc(CO)cc2)cc1`
[reply] 0.343 (inactive)

====

Documented composite z-score across a set of compounds
- TEST SYSTEM: Neurogenic locus notch homolog protein 2 (Homo sapiens)
- TEST DETAILS: Notch2 binders on small-molecule microarrays, primary screen, biochemical, small-molecule microarray, 635 nm fluorescence, stem cell growth factors (AID 1073)
- APPLIED CONDITIONS: Notch2 binding, higher = more signal
Keep the answer to the number alone.

These solved cases illustrate the format of a correct answer.
CPD SMILES	composite z-score
O=c1cccc(-c2ccc(F)cc2)o1	0.607
COCC(=C=CC[C@@H](O)c1ccc(OCCO)cc1)CCO	-0.0206
CCCCC(=C=CC[C@H](O)c1ccc(OCCO)cc1)C[C@H](O)COCc1ccccc1	-0.238
COc1ccc([Si](C)(C)[C@@H]2[C@@H](CCn3cc([C@H](O)c4ccccc4)nn3)O[C@]3(C(=O)N(Cc4cccc(N5C(=O)c6cccc7cccc5c67)c4)c4ccccc43)[C@H]2C)cc1	-0.643
COC(=O)[C@@]1(Cc2ccccc2CN=[N+]=[N-])N=C(c2ccc(OCCCO)cc2)O[C@H]1c1ccccc1CN=[N+]=[N-]	-0.733
COCCOC(=O)N1C(=O)[C@@]2(c3cc(C#CC4=CCCCC4)ccc31)[C@H](C(=O)N1CCCCCCC1)[C@H]1C(=O)O[C@H](c3ccccc3)[C@H](c3ccccc3)N1[C@@H]2c1ccc(OCCO)cc1	0.891
[N-]=[N+]=NCc1ccccc1C[C@]1(C(=O)N2CCOCC2)COC(c2ccc(OCCCO)cc2)=N1	0.626

Next:
[ask] Please indicate composite z-score recorded for `COC(=O)[C@@]1(Cc2ccccc2)[C@H]2c3cc(C(=O)N(C)C)n(CCn4cc([N+](=O)[O-])nc4C)c3C[C@H]2CN1C(=O)c1ccccc1`
[reply] 1.23

====

Documented z-score across a set of molecules
- TEST DETAILS: basal 3T3-L1 adipocyte mitochondrial potential changes, profiling panel, cell-based, JC-1 fluorescence, 3T3-L1 adipocytes, 24 h, 100 nL compound (AID 1168); also: test concentration not given here
- APPLIED CONDITIONS: JC-1 mitochondrial fluorescence, higher = more signal, called active from +8 up or from −8 down
Keep the answer to the number alone.

These solved cases illustrate the format of a correct answer.
MOLECULE	z-score
C=CCC(OC(C)=O)[C@@H]1[C@@H](N(Cc2ccc(-c3ccccc3)cc2)C(=O)Cc2ccc(F)cc2)c2cc(OCCCO)ccc2N1C(=O)Cc1ccc2ccccc2c1 (some centres undefined)	-0.321
COc1cc2c(cc1O)C(c1ccc(CN3CCCC3)cc1)N(C)CC2 (centres undefined)	0.585
C=C/C=C/[C@@H]1C(=C)CN([C@@H](Cc2ccccc2)C(=O)OC)[C@H]1[C@@H](O)Cc1ccccc1	0.147

[ask] Please indicate z-score recorded for `COc1ccc(C(=O)Nc2cccc(CN3C(=O)[C@]4(O[C@H](CCn5cc([C@H](O)c6ccccc6)nn5)[C@@H]([Si](C)(C)c5ccc(OC)cc5)[C@@H]4C)c4ccccc43)c2)cc1`
[reply] -0.386

====

- TEST DETAILS: E. coli acrAB mutant growth effects, primary screen, E. coli filamentation inducers, strain DRC39, OD650, 24 h (AID 1178);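 also: growth measured as culture turbidity by optical density at 650 nm; test concentration not given here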
- APPLIED CONDITIONS: higher = more signal, called active from +8 up or from −8 down
Calls of active or inactive are those of the source.
METRIC: z-score

These solved cases illustrate the format of a correct answer.
COMPOUND	z-score
CCOC(=O)C=Cc1cc(F)ccc1O	-1.01 (inactive)
Cc1ccc(C(C)CC(O)C2C=CC3C(=O)N(c4ccccc4)C(=O)C3N2Nc2ccc(C#N)cc2)o1 (stereo unspecified)	0.431 (inactive)
CCc1cccc(NC(=O)O[C@H]2[C@H](OC(=O)Nc3ccccc3)[C@H](OC(=O)Nc3ccccc3)[C@@H](OC)O[C@@H]2CO)c1	0.0415 (inactive)
O=C1C2C=CC(C(O)c3ccc4c(c3)OCO4)N(Nc3ccccc3)C2C(=O)N1c1ccccc1 (stereo unspecified)	-0.0005 (inactive)
C=C[C@@H](C)[C@H](O)c1ccc(OCCO)cc1	1.02 (inactive)

[ask] Please indicate z-score recorded for `[N-]=[N+]=NCc1ccccc1C[C@@]1(C(=O)N2CCCCC2)N=C(c2ccc(OCCCO)cc2)O[C@@H]1c1ccccc1CN=[N+]=[N-]`
[reply] 0.191 (inactive)

[ask] Please indicate z-score recorded for `CCCCC(=O)N(CCN1CCOCC1)[C@@H]1CC(C(=O)NCCO)=C[C@H](Oc2c(I)cc(CO)cc2OC)[C@H]1O`
[reply] 1.34 (inactive)

[ask] Please indicate z-score recorded for `COCC(=C=CC[C@H](O)c1cccc(OCCO)c1)C[C@H](O)COCc1ccccc1`
[reply] -0.0164 (inactive)
